Cited source: the supplement of paper PMC6607015

# Test system: A431
# Test method notes: whole-cell filipin (free cholesterol) integrated intensity, Z-score; higher = more cholesterol staining
# Test parameters: compound concentration in added solution (µM; 5 µl added to 20 µl cells): 10; 18 h
Where a name gives a salt, the structure may show the parent alone.
Experimental endpoint: whole-cell filipin (z-score)
Response field accepts a number only; no unit should be typed.

Known whole-cell filipin (z-score) results, listed for orientation:
O=C1CCc2ccc(OCCCCN3CCN(c4cccc(Cl)c4Cl)CC3)cc2N1 [Aripiprazole]	2.88
C#C[C@]1(O)CC[C@H]2[C@@H]3CCc4cc(O)ccc4[C@H]3CC[C@@]21C [Ethinylestradiol]	-0.139
CS(=O)(=O)c1ccc([C@@H](O)[C@@H](CF)NC(=O)C(Cl)Cl)cc1 [Florfenicol]	-0.505
CN(C)CCOC(c1ccccc1)c1ccccc1.Cn1c(=O)c2[nH]c(Cl)nc2n(C)c1=O [Dimenhydrinate]	-0.514

Q: // query whole-cell filipin (z-score) value for entry Cc1c(Cl)cccc1Nc1ncccc1C(=O)O [Clonixin Lysinate]
Ans: -0.0028

Q: Continue with CN1C(C(=O)Nc2ccccn2)=C(O)c2ccccc2S1(=O)=O [Piroxicam]
Ans: -0.896

Q: Continue with CCc1cccc(CC)c1NC(=O)CN(CC(=O)O)CC(=O)O [Etifenin]
Ans: -0.798

Q: Continue with CC(CN1c2ccccc2Sc2ccccc21)N(C)C (centres undefined) [Promethazine hydrochloride]
Ans: 2.37

Q: Continue with Oc1c(Cl)cc(Cl)c(Cl)c1Cc1c(O)c(Cl)cc(Cl)c1Cl [Hexachlorophene]
Ans: -0.203
